experiment: HILIC, Waters Atlantis Premier BEH Z-HILIC, 100 × 2.1 mm, 1.7 µm, 40 °C, 0.15 mL/min, estimated dead time 1.5 min; A: water + 20 mM ammonium carbonate + 5 µM medronic acid; B: 10% water + 90% acetonitrile + 2 mM ammonium carbonate + 0.5 µM medronic acid; gradient (min/%B) 0/95 18/55 18.1/20 21.5/20 22/95 23.5/95 25.5/95; settings: stereoisomer not certain
Consider the cut-off 10 min. If the recorded LC retention time is strictly smaller, the label is TRUE; if not, the label is FALSE.

# check: LC retention time < 10 min for O=P(O)(O)OCC1OC(O)(COP(=O)(O)O)C(O)C1O (centres undefined) [Fructose-1,6-bisphosphate]
FALSE

# check: LC retention time < 10 min for O=C(O)CCCCC1SCC2NC(=O)NC21 (centres undefined)
TRUE

# check: LC retention time < 10 min for O=C(O)C(CO)OP(=O)(O)O (centres undefined)
FALSE

# check: LC retention time < 10 min for NC(=O)C1=CN(C2OC(COP(=O)(O)OP(=O)(O)OCC3OC(n4cnc5c(N)ncnc54)C(OP(=O)(O)O)C3O)C(O)C2O)C=CC1 (centres undefined)
FALSE

# check: LC retention time < 10 min for NCCCCC(N)C(=O)O (centres undefined)
FALSE

# check: LC retention time < 10 min for Nc1ncnc2c1ncn2C1OC(COP(=O)(O)O)C(O)C1O (centres undefined)
TRUE

# check: LC retention time < 10 min for O=C(O)CC(C(=O)O)C(O)C(=O)O (centres undefined)
FALSE

# check: LC retention time < 10 min for Cc1cc2nc3c(=O)[nH]c(=O)nc-3n(CC(O)C(O)C(O)COP(=O)(O)OP(=O)(O)OCC3OC(n4cnc5c(N)ncnc54)C(O)C3O)c2cc1C (centres undefined)
TRUE
